- targetOrSystem: human IR (hIR) (Homo sapiens, UniProt P06213)
- Construct: containing amino acid residues 979-1382 of human IR
- assayName: TR-FRET kinase assay of purified hIR
- reportedConditions: activated hIR 0.5 nM, 10 μM ATP, values given as pIC50 category
pIC50: −log10 of the molar value.
pIC50 by entry:

Consider the reported pIC50 for these molecules:
1. CNC(=O)c1c(F)cccc1Nc1nc(Nc2cc3c(cc2OC)CCN3C(=O)CN(C)C)nc2[nH]cc(F)c12 [Example 253] | 8.40 to 8.90
2. Cc1ccc(NC(=O)CN(C)C)cc1Nc1nc(Nc2ccccc2C(N)=O)c2cc[nH]c2n1 [Example 13] | 9.00 to 9.60
3. CCc1cc(N2CCN(C(C)C)CC2)ccc1Nc1nc(Nc2cc(F)ccc2C(N)=O)c2cc[nH]c2n1 [Example 69] | 8.40 to 8.90
4. CNC(=O)c1c(F)cccc1Nc1nc(Nc2cc3c(cc2OC)CCN3C(=O)CN(C)C)nc2[nH]cc(C)c12 [Example 258] | 9.00 to 9.60
5. COc1cc2c(cc1Nc1nc(Nc3cccc(F)c3C(N)=O)c3cc[nH]c3n1)NCC2 [Example 140] | 6.80 to 8.30

Identify measured pIC50 associated with COc1cc(N2CCOC[C@@H]2C)ccc1Nc1nc(Nc2ccc(F)cc2C(N)=O)c2cc[nH]c2n1 [Example 61] 9.00 to 9.60

Identify measured pIC50 associated with COc1cc(N2CCC(N3CC[C@H](F)C3)CC2)ccc1Nc1nc(Nc2cccc(F)c2C(N)=O)c2cc[nH]c2n1 [Example 43] 8.40 to 8.90

Identify measured pIC50 associated with COc1cc2c(cc1Nc1nc(Nc3cc(F)cc(F)c3C(=O)NC(C)C)c3cc[nH]c3n1)N(C(=O)CN(C)C)CC2 [Example 153] 8.40 to 8.90

Identify measured pIC50 associated with CCCN1CCC(COc2ccc(Nc3nc(Nc4cccc(F)c4C(N)=O)c4cc[nH]c4n3)c(OC)c2)CC1 [Example 206] 8.40 to 8.90

Identify measured pIC50 associated with CNC(=O)c1c(F)cccc1Nc1nc(Nc2cc3c(cc2OC)CCN3C(=O)COC)nc2[nH]ccc12 [Example 150] 6.80 to 8.30

====

- targetOrSystem: NIH-3T3 cells overexpressing human IR (Homo sapiens, UniProt P06213)
- Construct: expressed in transfected cells; host or cells: NIH-3T3 (mouse fibroblasts)
- Sequence (P06213 28-1382): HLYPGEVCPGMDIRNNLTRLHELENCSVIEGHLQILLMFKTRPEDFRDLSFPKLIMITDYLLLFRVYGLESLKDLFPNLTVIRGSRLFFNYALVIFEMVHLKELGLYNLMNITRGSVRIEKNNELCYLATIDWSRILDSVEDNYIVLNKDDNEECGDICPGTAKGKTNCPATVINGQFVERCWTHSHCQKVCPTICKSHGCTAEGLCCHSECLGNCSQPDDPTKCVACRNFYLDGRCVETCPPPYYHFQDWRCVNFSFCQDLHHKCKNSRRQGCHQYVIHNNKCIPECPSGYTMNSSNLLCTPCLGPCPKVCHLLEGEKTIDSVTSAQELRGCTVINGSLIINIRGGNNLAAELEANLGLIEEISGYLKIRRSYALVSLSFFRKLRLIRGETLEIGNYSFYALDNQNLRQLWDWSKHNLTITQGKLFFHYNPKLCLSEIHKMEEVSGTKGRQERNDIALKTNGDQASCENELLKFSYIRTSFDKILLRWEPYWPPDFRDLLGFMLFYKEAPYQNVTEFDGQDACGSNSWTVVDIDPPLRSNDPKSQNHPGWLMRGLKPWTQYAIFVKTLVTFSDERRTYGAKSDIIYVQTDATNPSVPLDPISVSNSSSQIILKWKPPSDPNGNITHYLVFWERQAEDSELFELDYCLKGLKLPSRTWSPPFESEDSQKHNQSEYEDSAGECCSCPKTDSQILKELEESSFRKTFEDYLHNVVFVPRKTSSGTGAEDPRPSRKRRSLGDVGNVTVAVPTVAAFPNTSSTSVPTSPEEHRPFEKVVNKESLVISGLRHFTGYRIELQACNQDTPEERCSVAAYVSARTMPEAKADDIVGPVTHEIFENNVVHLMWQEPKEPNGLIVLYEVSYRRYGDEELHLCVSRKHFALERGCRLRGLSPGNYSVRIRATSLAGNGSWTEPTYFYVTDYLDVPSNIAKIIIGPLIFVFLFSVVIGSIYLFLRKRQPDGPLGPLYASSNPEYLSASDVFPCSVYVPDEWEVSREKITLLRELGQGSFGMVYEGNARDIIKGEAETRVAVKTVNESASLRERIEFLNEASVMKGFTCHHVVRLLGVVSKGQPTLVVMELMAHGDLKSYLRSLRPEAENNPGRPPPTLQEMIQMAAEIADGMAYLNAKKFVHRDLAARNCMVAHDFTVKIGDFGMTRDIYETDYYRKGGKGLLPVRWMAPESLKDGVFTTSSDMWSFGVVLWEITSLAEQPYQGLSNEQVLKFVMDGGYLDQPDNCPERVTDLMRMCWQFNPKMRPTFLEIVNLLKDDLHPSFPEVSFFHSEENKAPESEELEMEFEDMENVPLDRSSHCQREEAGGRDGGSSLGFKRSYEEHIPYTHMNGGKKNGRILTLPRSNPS
- assayName: IR cellular autophosphorylation (DELFIA)
- Assay type: cell-based
- reportedConditions: 2 h compound, insulin 3 ug/ml for 15 minutes, IC50 category
IC50 by entry:

Consider the reported IC50 for these molecules:
1. COc1cc2c(cc1Nc1nc(Nc3cccc(F)c3C(N)=O)c3cc[nH]c3n1)N(C(=O)Cn1ccnc1)CC2 | > 500 nM
2. CCNC(=O)c1c(F)cccc1Nc1nc(Nc2cc3c(cc2OC)CCN3C(=O)CN(C)C)nc2[nH]ccc12 | 100 to 500 nM
3. Cc1ccc(NC(=O)CN(C)C)cc1Nc1nc(Nc2ccc(F)cc2C(N)=O)c2cc[nH]c2n1 | 100 to 500 nM

Identify measured IC50 associated with "COc1cc2c(cc1Nc1nc(Nc3cccc(F)c3C(N)=O)c3cc[nH]c3n1)N(C(=O)CN1CCOCC1)CC2" > 500 nM

Identify measured IC50 associated with "CCN(C)CC(=O)N1CCc2cc(OC)c(Nc3nc(Nc4cccc(F)c4C(N)=O)c4cc[nH]c4n3)cc21" < 100 nM

Identify measured IC50 associated with "CNC(=O)c1c(F)cc(Cl)cc1Nc1nc(Nc2cc3c(cc2OC)CCN3C(=O)CN2CCCC2)nc2[nH]ccc12" 100 to 500 nM

Identify measured IC50 associated with "COc1cc2c(cc1Nc1nc(Nc3cccc(F)c3C(N)=O)c3cc[nH]c3n1)N(C(=O)CCN(C)C)CC2" > 500 nM

Identify measured IC50 associated with "COc1cc2c(cc1Nc1nc(Nc3cc(F)cc(F)c3C(N)=O)c3cc[nH]c3n1)N(C(=O)CN1CCCC1)CCC2" < 100 nM

Identify measured IC50 associated with "CNC(=O)c1c(F)cc(F)cc1Nc1nc(Nc2cc3c(cc2OC)CCN3C(=O)CN(C)C)nc2[nH]ccc12" < 100 nM

Identify measured IC50 associated with "COc1cc(N2CCC(N3CCN(S(C)(=O)=O)CC3)CC2)ccc1Nc1nc(Nc2cccc(F)c2C(N)=O)c2cc[nH]c2n1" 100 to 500 nM

Identify measured IC50 associated with "CNC(=O)c1c(F)cccc1Nc1nc(Nc2cc(NC(=O)CN(C)C)ccc2OC)nc2[nH]ccc12" > 500 nM

Identify measured IC50 associated with "COc1cc(N2CCC(N3CC[C@@H](F)C3)CC2)ccc1Nc1nc(Nc2cc(F)ccc2C(N)=O)c2cc[nH]c2n1" 100 to 500 nM

Identify measured IC50 associated with "COc1cc2c(cc1Nc1nc(Nc3cccc(F)c3C(N)=O)c3cc[nH]c3n1)CN(C(=O)CCN1CCN(C(C)C)CC1)CC2" > 500 nM

Identify measured IC50 associated with CCCN1CCCC(c2ccc(Nc3nc(Nc4ccccc4C(=O)NC)c4cc[nH]c4n3)c(OC)c2)C1 (stereo not drawn) 100 to 500 nM

Identify measured IC50 associated with "COc1cc2c(cc1Nc1nc(Nc3cccc(F)c3C(N)=O)c3cc[nH]c3n1)N(C(C)=O)CCC2" > 500 nM

====

- targetOrSystem: NIH-3T3 cells overexpressing human IR (Homo sapiens, UniProt P06213)
- assayName: IR cellular autophosphorylation (DELFIA)
- reportedConditions: 2 h compound, insulin 3 ug/ml for 15 minutes, IC50 category
- Experimental: NIH-3T3 cells overexpressing human IGF-1R or IR were plated in 96-well plates (10,000 cells/well) in culture media containing 10% fetal bovine serum and incubated at 37° C. in a 5% CO2 incubator. Twenty four hours post-plating, cells were treated with different concentrations of test compounds ranging from 30 uM to 1.5 nM. […] The fluorescence signal for cells treated with compounds was expressed as percent relative to 100% stimulation (IGF-1 or insulin stimulated signal).
IC50 by entry:

Consider the reported IC50 for these compounds:
1) COc1cc2c(cc1Nc1nc(Nc3cc(F)cc(F)c3C(=O)NCc3ccc(F)cc3)c3cc[nH]c3n1)N(C(=O)CN(C)C)CC2 | 100 to 500 nM
2) COc1cc2c(cc1Nc1nc(Nc3cccc(F)c3C(N)=O)c3cc[nH]c3n1)N(C(=O)CN)CC2 | > 500 nM

Identify measured IC50 associated with "COc1cc(N2CCN(CC3CC3)CC2)ccc1Nc1nc(Nc2cc(F)ccc2C(N)=O)c2cc[nH]c2n1" 100 to 500 nM

Identify measured IC50 associated with "COc1cc(N2CCC[C@H](O)C2)ccc1Nc1nc(Nc2cc(F)ccc2C(N)=O)c2cc[nH]c2n1" 100 to 500 nM

Identify measured IC50 associated with "COc1cc(N2CCN(C(C)C)CC2)ccc1Nc1nc(Nc2ccc(F)cc2C(=O)NCCO)c2cc[nH]c2n1" > 500 nM

Identify measured IC50 associated with "CNC(=O)c1c(F)cc(F)cc1Nc1nc(Nc2cc3c(cc2OC)CCCN3C(=O)CN2CCCC2)nc2[nH]ccc12" < 100 nM

Identify measured IC50 associated with "COc1cc(C2=CCN(C(C)C)CC2)ccc1Nc1nc(Nc2cc(F)ccc2C(N)=O)c2cc[nH]c2n1" 100 to 500 nM

Identify measured IC50 associated with "COc1cc2c(cc1Nc1nc(Nc3cccc(F)c3C(N)=O)c3cc(C)[nH]c3n1)N(C(=O)CN(C)C)CC2" 100 to 500 nM

Identify measured IC50 associated with "COc1cc(OCCN2CCN(C)CC2)ccc1Nc1nc(Nc2cccc(F)c2C(N)=O)c2cc[nH]c2n1" < 100 nM

Identify measured IC50 associated with "COc1cc(N2CCOCC2)ccc1Nc1nc(Nc2cc(F)ccc2C(N)=O)c2cc[nH]c2n1" < 100 nM

Identify measured IC50 associated with "COc1cc(N2CCOCC2)ccc1Nc1nc(Nc2ccccc2C(N)=O)c2cc[nH]c2n1" 100 to 500 nM

Identify measured IC50 associated with "CCCN(CCC)[C@@H](C)C(=O)N1CCc2cc(OC)c(Nc3nc(Nc4cccc(F)c4C(N)=O)c4cc[nH]c4n3)cc21" < 100 nM

====

IC50 by entry:
- targetOrSystem: ALK (Homo sapiens, UniProt Q9UM73)
- Sequence (Q9UM73 19-1620): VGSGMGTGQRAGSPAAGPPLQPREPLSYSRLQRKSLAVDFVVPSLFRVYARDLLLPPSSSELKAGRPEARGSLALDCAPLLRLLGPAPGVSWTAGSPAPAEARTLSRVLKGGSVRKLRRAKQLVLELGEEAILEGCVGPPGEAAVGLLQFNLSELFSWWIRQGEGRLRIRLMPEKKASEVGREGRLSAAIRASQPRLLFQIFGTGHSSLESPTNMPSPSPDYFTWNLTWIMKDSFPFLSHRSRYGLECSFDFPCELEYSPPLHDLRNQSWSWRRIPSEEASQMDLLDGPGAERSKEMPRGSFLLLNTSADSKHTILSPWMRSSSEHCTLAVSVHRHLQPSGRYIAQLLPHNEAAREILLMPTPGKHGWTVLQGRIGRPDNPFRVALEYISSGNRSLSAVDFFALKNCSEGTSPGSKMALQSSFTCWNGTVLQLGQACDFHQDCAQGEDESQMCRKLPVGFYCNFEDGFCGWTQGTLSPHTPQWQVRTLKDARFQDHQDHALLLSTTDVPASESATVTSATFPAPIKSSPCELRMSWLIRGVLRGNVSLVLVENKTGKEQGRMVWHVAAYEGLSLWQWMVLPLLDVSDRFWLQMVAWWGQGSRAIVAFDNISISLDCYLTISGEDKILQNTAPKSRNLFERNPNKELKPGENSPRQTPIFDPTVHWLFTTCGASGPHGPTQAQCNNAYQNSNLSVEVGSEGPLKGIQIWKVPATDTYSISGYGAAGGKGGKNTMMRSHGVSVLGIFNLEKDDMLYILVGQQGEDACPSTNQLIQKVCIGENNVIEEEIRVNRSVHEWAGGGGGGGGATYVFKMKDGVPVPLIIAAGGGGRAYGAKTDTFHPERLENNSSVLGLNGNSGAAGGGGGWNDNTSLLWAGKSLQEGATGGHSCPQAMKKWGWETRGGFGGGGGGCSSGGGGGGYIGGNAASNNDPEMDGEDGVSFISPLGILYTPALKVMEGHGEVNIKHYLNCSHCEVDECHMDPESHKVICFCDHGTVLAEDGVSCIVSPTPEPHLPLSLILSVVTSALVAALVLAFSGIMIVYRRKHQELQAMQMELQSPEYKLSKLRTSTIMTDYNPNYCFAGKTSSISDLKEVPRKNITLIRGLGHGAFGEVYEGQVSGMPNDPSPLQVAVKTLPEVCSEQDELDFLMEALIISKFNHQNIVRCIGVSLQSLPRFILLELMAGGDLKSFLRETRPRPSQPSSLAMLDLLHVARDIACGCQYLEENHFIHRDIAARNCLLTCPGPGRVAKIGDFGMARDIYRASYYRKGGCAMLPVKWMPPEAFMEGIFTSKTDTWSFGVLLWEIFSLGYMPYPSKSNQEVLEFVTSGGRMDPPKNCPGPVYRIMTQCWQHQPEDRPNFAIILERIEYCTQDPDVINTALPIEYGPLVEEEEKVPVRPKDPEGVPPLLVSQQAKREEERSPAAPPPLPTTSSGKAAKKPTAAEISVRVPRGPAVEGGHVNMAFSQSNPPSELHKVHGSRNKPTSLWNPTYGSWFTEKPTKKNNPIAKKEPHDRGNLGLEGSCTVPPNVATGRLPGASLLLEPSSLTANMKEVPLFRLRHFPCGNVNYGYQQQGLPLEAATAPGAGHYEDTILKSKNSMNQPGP

1. COc1cc2c(cc1Nc1nc(Nc3cccc(F)c3C(N)=O)c3cc[nH]c3n1)CN(C(=O)CCN(C)C)CC2 | 5.01 to 200 nM
2. COc1cc(N2CCC(N3CC[C@H](F)C3)CC2)ccc1Nc1nc(Nc2cccc(F)c2C(N)=O)c2cc[nH]c2n1 | 1.26 to 3.98 nM
3. CNC(=O)c1c(F)cccc1Nc1nc(Nc2cc3c(cc2OC)CCCN3C(=O)CN(C)C)nc2[nH]ccc12 | 1.26 to 3.98 nM
4. CCCN1CCC=C(c2ccc(Nc3nc(Nc4cccc(F)c4C(N)=O)c4cc[nH]c4n3)c(C)c2)C1 | 1.26 to 3.98 nM
5. COc1cc(C2=CCN(C(C)C)CC2)ccc1Nc1nc(Nc2cc(F)ccc2C(N)=O)c2cc[nH]c2n1 | 0.251 to 1 nM

Give IC50 for "COc1cc(N2CCCN(S(C)(=O)=O)CC2)ccc1Nc1nc(Nc2cccc(F)c2C(N)=O)c2cc[nH]c2n1" tested on ALK (Homo sapiens, UniProt Q9UM73). 1.26 to 3.98 nM

Give IC50 for "COc1cc(N2CCN(C(C)C)CC2)c(OC)cc1Nc1nc(Nc2cc(F)ccc2C(N)=O)c2cc[nH]c2n1" tested on ALK (Homo sapiens, UniProt Q9UM73). 1.26 to 3.98 nM

Give IC50 for "CN(C)CC(=O)Nc1ccc(OC(F)(F)F)c(Nc2nc(Nc3ccc(F)cc3C(N)=O)c3cc[nH]c3n2)c1" tested on ALK (Homo sapiens, UniProt Q9UM73). 1.26 to 3.98 nM

Give IC50 for "COc1cc2c(cc1Nc1nc(Nc3cc(F)cc(F)c3C(N)=O)c3cc[nH]c3n1)N(C(=O)[C@@H]1CCCN1C)CC2" tested on ALK (Homo sapiens, UniProt Q9UM73). 5.01 to 200 nM

Give IC50 for "COc1cc2c(cc1Nc1nc(Nc3cccc(F)c3C(N)=O)c3cc[nH]c3n1)N(C(=O)CN1CCCC1)CC2" tested on ALK (Homo sapiens, UniProt Q9UM73). 1.26 to 3.98 nM

Give IC50 for "CCCN1CCC=C(c2ccc(Nc3nc(Nc4ccc(F)cc4C(N)=O)c4cc[nH]c4n3)c(OC)c2)C1" tested on ALK (Homo sapiens, UniProt Q9UM73). 0.251 to 1 nM
